Source: patent US8299021B2

- ASSAY TARGET: NS3-NS4 protease (full-length NS3/NS4A-2) (Hepatitis C virus genotype 1a)
- Construct: Recombinant E. coli or Baculovirus full-length NS3 was diluted to 3.33 μM with assay buffer; made in house; host or cells: E. coli or baculovirus (insect cells)
- TEST NAME: NS3-NS4 protease assay / NS3 inhibition assay (RETS1 substrate, fluorescence kinetic read)
- Assay type: biochemical
- CONDITION SUMMARY: Table 25; read-out: NS3-NS4 IC50
Recorded IC50 values for a group of compounds are listed next.

[[record]]
compound = "Cc1ccc([S+]([O-])NC(=O)C23CC2C=CCCCCCC(NC(=O)OC(C)(C)C)C(=O)N2CC(OC(=O)N4Cc5ccccc5C4)CC2C(=O)N3)cc1 (centres unmarked) [Compound 2603]"
assay_target = "NS3-NS4 protease (full-length NS3/NS4A-2) (Hepatitis C virus genotype 1a)"
value_reported = "< 10 µM"


Kindly review the next compound as well.
Tell me measured IC50 for Cc1ccc([S@+]([O-])NC(=O)[C@@]23C[C@H]2/C=C\CCCCC[C@H](NC(=O)OC(C)(C)C)C(=O)N2C[C@H](OC(=O)N4Cc5ccccc5C4)C[C@H]2C(=O)N3)cc1 [Compound 2602] please. < 10 µM

* * *

- ASSAY TARGET: NS3-NS4 protease (full-length NS3/NS4A-2) (Hepatitis C virus genotype 1a)
- Construct: Recombinant E. coli or Baculovirus full-length NS3 was diluted to 3.33 μM with assay buffer; made in house; host or cells: E. coli or baculovirus (insect cells)
- TEST NAME: NS3-NS4 protease assay / NS3 inhibition assay (RETS1 substrate, fluorescence kinetic read)
- Assay type: biochemical
- CONDITION SUMMARY: read-out: NS3-NS4 IC50
MEASURED QUANTITY: IC50

[[record]]
compound = "CC(C)(C)OC(=O)N[C@H]1CCCCC/C=C\\[C@@H]2C[C@@]2(C(=O)NS(=O)(=O)NCC2CC2)NC(=O)[C@@H]2CCCN2C1=O [Compound 2245]"
assay_target = "NS3-NS4 protease (full-length NS3/NS4A-2) (Hepatitis C virus genotype 1a)"
value_reported = "< 0.1 µM"

[[record]]
compound = "CC(C)OC(=O)N[C@H]1CCCCC/C=C\\[C@@H]2C[C@@]2(C(=O)NS(=O)(=O)Nc2ccc(Cl)cc2)NC(=O)[C@@H]2CCCN2C1=O [Compound 418]"
assay_target = "NS3-NS4 protease (full-length NS3/NS4A-2) (Hepatitis C virus genotype 1a)"
value_reported = "> 10 µM"


Now for the compound whose IC50 we want.
Specify IC50 for CCC1CCCCN1S(=O)(=O)NC(=O)[C@@]12C[C@H]1/C=C\CCCCC[C@H](NC(=O)OC(C)(C)C)C(=O)N1CCC[C@H]1C(=O)N2 (stereo partly drawn) [Compound 2220] and stop. < 1 µM

* * *

- ASSAY TARGET: NS3-NS4 protease (full-length NS3/NS4A-2) (Hepatitis C virus genotype 1a, UniProt P27958)
- Construct: Recombinant E. coli or Baculovirus full-length NS3 was diluted to 3.33 μM with assay buffer; made in house; host or cells: E. coli or baculovirus (insect cells)
- Sequence (P27958 1027-1657): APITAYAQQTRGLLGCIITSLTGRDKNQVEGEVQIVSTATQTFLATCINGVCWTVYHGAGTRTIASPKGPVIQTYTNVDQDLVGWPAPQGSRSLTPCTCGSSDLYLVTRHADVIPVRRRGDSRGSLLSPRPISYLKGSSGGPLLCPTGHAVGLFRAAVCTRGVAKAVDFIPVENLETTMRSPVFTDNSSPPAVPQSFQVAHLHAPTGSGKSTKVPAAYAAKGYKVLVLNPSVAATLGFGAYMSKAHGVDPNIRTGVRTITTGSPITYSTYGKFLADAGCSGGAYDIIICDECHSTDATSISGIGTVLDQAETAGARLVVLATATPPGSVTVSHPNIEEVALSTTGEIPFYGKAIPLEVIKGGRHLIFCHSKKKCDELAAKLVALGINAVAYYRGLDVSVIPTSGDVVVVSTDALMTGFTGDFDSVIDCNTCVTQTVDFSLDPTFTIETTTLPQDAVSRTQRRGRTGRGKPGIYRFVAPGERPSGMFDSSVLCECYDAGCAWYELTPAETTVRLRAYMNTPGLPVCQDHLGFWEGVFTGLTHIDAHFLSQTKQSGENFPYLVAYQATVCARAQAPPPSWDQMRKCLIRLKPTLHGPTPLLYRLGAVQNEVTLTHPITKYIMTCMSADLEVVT
- TEST NAME: NS3-NS4 protease assay / NS3 inhibition assay (RETS1 substrate, fluorescence kinetic read)
- Format: biochemical
- CONDITION SUMMARY: read-out: NS3-NS4 IC50
MEASURED QUANTITY: IC50

Specify IC50 for CC(C)(C)OC(=O)N[C@H]1CCCCC/C=C\[C@@H]2C[C@@]2(C(=O)NS(C)(=O)=O)NC(=O)[C@@H]2CCCN2C1=O [Compound 2103] and stop. < 1000 nM

Look up and report measured IC50 for this entry: CC(C)(C)OC(=O)N[C@H]1CCCCC/C=C\[C@@H]2C[C@@]2(C(=O)NS(=O)(=O)N2CCCCC2)NC(=O)[C@@H]2CCCN2C1=O [Compound 2219] < 10000 nM

Specify IC50 for O=C1N[C@]2(C(=O)NS(=O)(=O)C3CC3)C[C@H]2/C=C\CCCCC[C@H](NC(=O)C2(C(F)(F)F)CC2)C(=O)N2C[C@H](OC(=O)N3Cc4cccc(Cl)c4C3)C[C@@H]12 [Compound 265] and stop. < 100 nM

* * *

The entries below come with measured IC50 values attached.
- ASSAY TARGET: NS3-NS4 protease (full-length NS3/NS4A-2) (Hepatitis C virus genotype 1a, UniProt P27958)
- Construct: Recombinant E. coli or Baculovirus full-length NS3 was diluted to 3.33 μM with assay buffer; made in house; host or cells: E. coli or baculovirus (insect cells)
- TEST NAME: NS3-NS4 protease assay / NS3 inhibition assay (RETS1 substrate, fluorescence kinetic read)
- Type: biochemical
- CONDITION SUMMARY: read-out: NS3-NS4 IC50

The examples below pair each entry with its known result.
[[record]]
compound = "CC(C)(C)OC(=O)N[C@H]1CCCCC/C=C\\[C@@H]2C[C@@]2(C(=O)NS(=O)(=O)c2ccc([N+](=O)[O-])cc2)NC(=O)[C@@H]2CCCN2C1=O"
value_reported = "< 10 µM"

[[record]]
compound = "CN(CC#N)S(=O)(=O)NC(=O)[C@@]12C[C@H]1/C=C\\CCCCC[C@H](NC(=O)OC(C)(C)C)C(=O)N1CCC[C@H]1C(=O)N2"
value_reported = "< 1 µM"

[[record]]
compound = "CC(C)(C)OC(=O)N[C@H]1CCC(F)(F)CCCC[C@@H]2C[C@@]2(C(=O)NS(=O)(=O)C2CC2)NC(=O)[C@@H]2C[C@@H](OC(=O)N3Cc4cccc(F)c4C3)CN2C1=O"
value_reported = "< 0.1 µM"

[[record]]
compound = "CC(C)(C)OC(=O)N[C@H]1CCCCC/C=C\\[C@@H]2C[C@@]2(C(=O)NS(=O)(=O)NC2CC2c2ccccc2)NC(=O)[C@@H]2CCCN2C1=O (some centres unmarked)"
value_reported = "< 10 µM"

[[record]]
compound = "CC(C)(C)OC(=O)N[C@H]1CCCCC/C=C\\[C@@H]2C[C@@]2(C(=O)NS(=O)(=O)c2ccc(Cl)cc2Cl)NC(=O)[C@@H]2CCCN2C1=O"
value_reported = "< 10 µM"


Write down IC50 measured for item `CC(C)(C)OC(=O)N[C@H]1CCCCC/C=C\[C@@H]2C[C@@]2(C(=O)NS(=O)(=O)NC2CCCC2)NC(=O)[C@@H]2CCCN2C1=O` < 1 µM

Please look at this compound and report its IC50: `CC(C)(C)OC(=O)N[C@H]1CCCCC/C=C\[C@@H]2C[C@@]2(C(=O)NS(=O)(=O)c2ccc(Cl)cc2)NC(=O)[C@@H]2CCCN2C1=O` < 10 µM

Please look at this compound and report its IC50: `CC(C)(C)OC(=O)N[C@H]1CCCCC/C=C\[C@@H]2C[C@@]2(C(=O)NS(=O)(=O)Nc2ccc(Cl)cc2)NC(=O)[C@@H]2CCCN2C1=O` > 10 µM

Identify the reported IC50 for the following entry. `CC(C)(C)OC(=O)N[C@H]1CCCCC/C=C\[C@@H]2C[C@@]2(C(=O)NS(=O)(=O)NC2CCC2)NC(=O)[C@@H]2CCCN2C1=O` < 1 µM

Complete the entry with IC50 for CC(C)(C)OC(=O)NC1CCCCC/C=C\[C@H]2C[C@@]2(C(=O)NS(=O)(=O)NCC(F)(F)F)NC(=O)C2CC(OC(=O)N3Cc4cccc(Cl)c4C3)CN2C1=O (single isomer, unassigned) < 0.1 µM

Give IC50 for `CC(C)(C)OC(=O)N[C@H]1CCCCC/C=C\[C@@H]2C[C@@]2(C(=O)NS(=O)(=O)C2CC2)NC(=O)[C@@H]2CCCN2C1=O` > 10 µM

* * *

- ASSAY TARGET: NS3-NS4 protease (full-length NS3/NS4A-2) (Hepatitis C virus genotype 1a, UniProt P27958)
- Construct: Recombinant E. coli or Baculovirus full-length NS3 was diluted to 3.33 μM with assay buffer; made in house; host or cells: E. coli or baculovirus (insect cells)
- TEST NAME: NS3-NS4 protease assay / NS3 inhibition assay (RETS1 substrate, fluorescence kinetic read)
- Assay type: biochemical
- CONDITION SUMMARY: read-out: NS3-NS4 IC50
IC50 values, listed per item

Guide cases for IC50, answers given:
[[record]]
given_smiles = "CC(C)N(C(C)C)S(=O)(=O)NC(=O)[C@@]12C[C@H]1/C=C\\CCCCC[C@H](NC(=O)OC(C)(C)C)C(=O)N1CCC[C@H]1C(=O)N2"
value_reported = "< 1000 nM"

[[record]]
given_smiles = "CN(CCc1ccccc1)S(=O)(=O)NC(=O)[C@@]12C[C@H]1/C=C\\CCCCC[C@H](NC(=O)OC(C)(C)C)C(=O)N1CCC[C@H]1C(=O)N2"
value_reported = "< 10000 nM"


# evaluate next
Name the recorded IC50 of the compound listed here: `CC(C)(C)OC(=O)N[C@H]1CCCCC/C=C\[C@@H]2C[C@@]2(C(=O)NS(=O)(=O)Nc2ccc(Cl)c(Cl)c2)NC(=O)[C@@H]2CCCN2C1=O` < 1000 nM
